molecular target: Peptidyl-prolyl cis-trans isomerase NIMA-interacting 1 (Homo sapiens); experiment: Inhibition of human Pin1 using Suc-Ala-Glu-Pro-Phe04-nitroanilide as peptide substrate preincubated for 14 hrs followed by substrate addition and measured immediately by chymotrypsin-coupled PPIase assay
Sequence (Q13526 whole entry): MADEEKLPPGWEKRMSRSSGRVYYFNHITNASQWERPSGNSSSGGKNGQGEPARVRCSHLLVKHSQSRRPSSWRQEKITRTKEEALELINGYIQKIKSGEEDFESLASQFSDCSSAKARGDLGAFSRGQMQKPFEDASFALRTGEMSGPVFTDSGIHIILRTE
attributeMeasured: IC50 (nM)

compound	attributeMeasured	numericValue
CC(C)(C)CN(C(=O)CCl)C1CCS(=O)(=O)C1 (stereo unspecified)	IC50	120
